# Tested on: COLO 205 colon
# Method notes: NCI-60 one-dose screen, 48 h
# Settings: 10 µM unless noted
About 83,000 compounds went through this panel and 20% of them were active in at least one assay; those are over-represented in the sample as a whole. Activity calls are given as the source filed them. Rule for the calls: active = growth percent below 10; inactive = the rest.
Respond using exactly one of the listed classes: active, inactive

Request: What did the test return for "O=C1/C(=C\c2ccc3nccnc3c2)SC(=S)N1CCc1ccc(O)cc1" ?
Response: inactive

Request: What did the test return for "[O-]/[N+](=C\c1ccc(-n2cc(Cc3ccccc3Cc3cn(-c4ccc(/C=[N+](/[O-])c5ccccc5)cc4)nn3)nn2)cc1)c1ccccc1" ?
Response: inactive

Request: What did the test return for "O=[N+]([O-])c1cccc(-c2nc3cc4nc5ccccc5[nH]c4cc3n2)c1" ?
Response: inactive

Request: What did the test return for "Cc1[nH]c(C(=O)Nc2ccccc2OC2CCNCC2)c(Cl)c1Cl" ?
Response: active

Request: What did the test return for "CC(C)=CCC[C@](C)(O)[C@H]1CC[C@]2(C)[C@@H]1CC[C@@H]1[C@@]3(C)C/C(=C/c4ccco4)C(=O)C(C)(C)[C@@H]3CC[C@]12C" ?
Response: inactive

Request: What did the test return for "N#Cc1nc(-c2ccc(F)cc2)oc1S(=O)(=O)N1CCOCC1" ?
Response: active

Request: What did the test return for "COc1ccccc1NC(=O)N=Nc1c(O)[nH]c2ccccc12" ?
Response: inactive

Request: What did the test return for "Cc1cc(=O)n(C(=O)Nc2ccccc2Cl)c2cc(O)ccc12" ?
Response: inactive

Request: What did the test return for "N#Cc1c(-c2ccccc2)cc(-c2ccccc2)n(CCCC(=O)Nc2ccccc2N)c1=O" ?
Response: inactive

Request: What did the test return for "O=C(Nc1nc(-c2ccc(Cl)cc2)nc2c1sc(=S)n2-c1ccccc1)C(F)(F)F" ?
Response: inactive

Request: What did the test return for "CCOC(=O)c1c(NC(=O)c2cccc(C(F)(F)F)c2)sc2c(CN(C)C)c(O)ccc12" ?
Response: inactive

Request: What did the test return for CC(O)(c1ccccc1)C(c1ccccc1)C1CCCCN1 (centres undefined) ?
Response: inactive

Request: What did the test return for "Nc1c(C(=O)Nc2ccccc2C(F)(F)F)sc2nc3c(cc12)CCC3" ?
Response: inactive

Request: What did the test return for "O=C(/C=C(/C=C/c1ccc2[nH]ccc2c1)OB(F)F)/C=C/c1ccc2[nH]ccc2c1" ?
Response: active

Request: What did the test return for "CCCCCCCC[C@@H]1N[C@@H](C(=O)OC)Cc2c1[nH]c1ccccc21" ?
Response: inactive

Request: What did the test return for "CCCNc1nc2ccccc2c2c1S(=O)(=O)c1ccc(Cl)cc1C2=O" ?
Response: active

Request: What did the test return for COC(=O)C1Cc2ccccc2CN1C(=O)c1ccc2c(c1)Cc1ccccc1-2 (centres undefined) ?
Response: inactive

Request: What did the test return for "COC(=O)/C=C1/SC(=Nc2cccc(OC)c2)N(CCc2c[nH]c3ccc(O)cc23)C1=O" ?
Response: inactive

Request: What did the test return for "O=C(CSc1nc2sc3c(c2c(=O)n1-c1ccccc1)CCCCC3)N/N=C/c1cccc([N+](=O)[O-])c1" ?
Response: inactive

---

# System: HOP-92 NSCLC
# Method notes: NCI-60 one-dose screen, 48 h (100 = growth as untreated, 0 = no growth, -100 = all killed)
# Settings: 10 µM unless noted
The panel holds about 83,000 compounds, 20% with a hit somewhere; the sample as a whole holds those more often.
Entry flag: Yes if growth reaches 60%; No if it does not.

Request: Could you please find out whether "O=C(c1ccccc1)c1ccc(C2CCCCC2)cc1" has growth that meets 60% or exceeds it?
Response: Yes

Request: Could you please find out whether COc1cc2c(c(OC)c1OC)CCC(c1cccc(C(=O)Nc3cccc(Cl)c3)c1)O2 (stereo not given) has growth that meets 60% or exceeds it?
Response: No

Request: Could you please find out whether "CCCCCC(/C=N\NC(=S)N/N=C/C(=C/c1ccccc1)CCCCC)=C\c1ccccc1" has growth that meets 60% or exceeds it?
Response: No

Request: Could you please find out whether "Cc1c2cnccc2c(C)c2c1c1cc(C#N)ccc1n2C" has growth that meets 60% or exceeds it?
Response: No

Request: Could you please find out whether "COC(=O)c1nc(-c2ccccc2)oc1S(=O)(=O)Cc1ccccc1" has growth that meets 60% or exceeds it?
Response: Yes

Request: Could you please find out whether "Cc1cccc(/C=C/c2c(C(=O)/C=C/c3ccccc3)c(C)nc3ccccc23)c1" has growth that meets 60% or exceeds it?
Response: No

Request: Could you please find out whether "CCCCCOC(=O)c1c(C)[nH]c(/C=C2\N=C(c3ccc[nH]3)C=C2OC)c1C" has growth that meets 60% or exceeds it?
Response: No

Request: Could you please find out whether "CCn1cc(C(=O)NNC(=S)Nc2ccc(C)cc2)c(=O)c2ccc(C)nc21" has growth that meets 60% or exceeds it?
Response: Yes

Request: Could you please find out whether "CSc1nnc(-c2cc3c([nH]c4ccccc43)c(-c3cccc(O)c3)n2)n1-c1ccccc1" has growth that meets 60% or exceeds it?
Response: No
